Could you please report measured solubility kinetic for the items listed next?
conditions: buffer; pH 7.4; 200.0 µM
Write the number in µg/mL without appending the unit.

[ask] Indicate the recorded solubility kinetic value for this compound: `COc1ccc(C)cc1N(CC(=O)N1CCCCCC1)S(C)(=O)=O`
[reply] 38.1

[ask] Give solubility kinetic for `Nc1ccc(C(=O)OCC(=O)Nc2cccc(S(=O)(=O)NC3=NCCCCC3)c2)cc1[N+](=O)[O-]`
[reply] 4.7

[ask] Supply reported solubility kinetic belonging to this compound: `CC(C)OC(=O)/C(C#N)=C/c1cn(C)c2ccccc12`
[reply] 3.9

[ask] Tell me measured solubility kinetic for `Cc1occc1C(=O)O/N=C(\N)c1ccc(Cl)cc1` please.
[reply] 9.1

[ask] State its solubility kinetic for this compound: `C#CCOc1ccccc1C(N)=O`
[reply] 25.3

[ask] Please report solubility kinetic for the following compound: CC(C)N1CC(COc2ccc(Br)cc2)OC1=O (centres undefined)
[reply] 45.1

[ask] Consider the compound `C[n+]1c(-c2ccccc2)sc([S-])c1-c1ccccc1` and give its recorded solubility kinetic.
[reply] 36

[ask] Output solubility kinetic of CC1CN(CC(O)COC2CCC(C(C)(C)C)CC2)CC(C)O1.Cl (centres undefined)
[reply] 48.8

[ask] Read off the recorded solubility kinetic for `COc1ccccc1Nc1nc(C)cc(C)n1`
[reply] 22.1

[ask] Quick one: give measured solubility kinetic for `Cc1ccc(NCc2nc3ccccc3n2C)cc1C`
[reply] 22.1

[ask] Return solubility kinetic (reported value) for this compound: O=C(CC1Sc2ccccc2NC1=O)NCc1ccccc1 (centres undefined)
[reply] 0.4

[ask] Identify measured solubility kinetic associated with `O=C(NCc1cccnc1)NC(=O)c1ccc(Cl)cc1`
[reply] 3.8

[ask] Quickly give me recorded solubility kinetic for `Cc1ccc(C)c(NC(=O)c2cc3ccccc3o2)c1`
[reply] 10.9

[ask] For the compound `CN(C)Cc1ccccc1C(O)(c1ccccc1)c1ccccc1` , give its measured solubility kinetic value.
[reply] 1.2

[ask] Please report the measured solubility kinetic for `CCCCN(C(=O)CSc1nc2ccccc2s1)c1c(N)n(CCCC)c(=O)[nH]c1=O`
[reply] 35.6

[ask] // Input: `O=C(NC12CC3CC(CC(C3)C1)C2)c1cncc(Br)c1` . Output its solubility kinetic only.
[reply] 8.5

[ask] Give solubility kinetic for OCCC1CN(Cc2cccc(O)c2)CCN1CCc1ccccc1 (centres undefined)
[reply] 50.8

[ask] Look up and report measured solubility kinetic for this entry: `Cc1ccc(C)c(C(=O)CCC(=O)Nc2ccc(F)cc2)c1`
[reply] 1

[ask] Respond only with solubility kinetic recorded for COc1ccc(C2c3ccc(O)cc3Oc3ncn(CC(C)C)c(=N)c32)cc1 (centres undefined)
[reply] 53.8

[ask] Please look at this compound and report its solubility kinetic: `COc1ccc(NC(=O)c2cc3ccccc3cc2OC)cc1`
[reply] 5.9

[ask] Find the measured solubility kinetic of CC(=O)NC(CSc1cc(C)nc2ccc(Br)cc12)C(=O)O (centres undefined) and report it.
[reply] 57.2

[ask] Give the measured solubility kinetic for `S=c1nccc(-c2ccc(Cl)cc2)[nH]1`
[reply] 26.7

[ask] In one line, give reported solubility kinetic of the entry `O=C(Nc1ccc(OCc2ccccc2)cc1)Nc1cccnc1` .
[reply] 1.2

[ask] Check the records and state solubility kinetic for CC1CCCC(NC(=O)CSc2ccc(F)cc2)C1C (centres undefined)
[reply] 2.8

[ask] Tell us which solubility kinetic value is on record for `Cc1cccc(C(=O)OCC(=O)NCC(C)C)c1O`
[reply] 13.6

[ask] Look up and state reported solubility kinetic for CCOC(=O)c1ccc(N2C(=O)CC(Sc3nc(C)cc(C)n3)C2=O)cc1 (centres undefined)
[reply] 4

[ask] Return the recorded solubility kinetic value; entry: CC(=O)c1ccc(S(=O)(=O)N2CCCCC2C(=O)O)cc1 (centres undefined)
[reply] 45.9
